Tested on: MDA-MB-231 human breast cancer cells
Experiment: Cell proliferation assay (CellTiter-Glo, 72 hours treatment)
Assay type: cell-based
Settings: Homo sapiens; MDA-MB-231 cells, 72 hours at 37° C., CellTiter-Glo; read-out: MDA-MB-231 cell proliferation assay (IC50)
Experimental: Human tumor cell lines were cultured in the appropriate media (DMEM and RPMI) supplemented with penicillin G (100 U/ml), streptomycin (100 μg/ml), 10% FBS in a humidified atmosphere of 5% CO2 maintained at 37° C. Exponentially growing cells were seeded at 2,500 cells/well in 96 well plates prior to drug treatment. […] Following compound treatment, cell proliferation was assessed by CellTiter-Glo assay (Promega, Madison Wis.) according to the manufacturer's protocol. […]
attribute-measured: IC50

Consider the worked cases shown below.
molecule	result
OC[C@H]1[C@@H](O)[C@@]2(O)c3ncc(Cl)cc3O[C@@]2(c2ccc(Br)cc2)[C@@H]1c1ccccc1 (racemic) [55F]	0.1 to 1 µM
COc1nc(Cl)cc2c1[C@]1(O)[C@H](O)[C@H](CN3CCOCC3)[C@@H](c3ccccc3)[C@]1(c1ccc(C#N)cc1)O2 (racemic) [152F]	< 0.1 µM
COc1cncc2c1[C@]1(O)[C@H](O)[C@H](CN3[C@@H]4CCC[C@H]3CC4)[C@@H](c3ccccc3)[C@]1(c1ccc(C#N)cc1)O2 (single isomer, unassigned) [268F]	0.1 to 1 µM

[ask] Indicate the recorded IC50 value for this molecule: N#Cc1ccc([C@@]23Oc4cc(Cl)cnc4[C@]2(O)[C@H](O)[C@H](CN)[C@H]3c2ccccc2)cc1 (racemic) [30F]
[reply] 0.1 to 1 µM

[ask] Indicate the recorded IC50 value for this molecule: COc1nc(C#N)cc2c1[C@]1(O)[C@@H](CN3CCOCC3)[C@H](CO)[C@@H](c3ccccc3)[C@]1(c1ccc(C#N)cc1)O2 (racemic) [200F]
[reply] < 0.1 µM

[ask] Indicate the recorded IC50 value for this molecule: COc1cncc2c1[C@]1(O)[C@H](O)[C@H](C(=O)N3[C@@H]4COC[C@H]3C4)[C@@H](c3ccccc3)[C@]1(c1ccc(Br)cc1)O2 (racemic) [266F]
[reply] < 0.1 µM
